Ref: the supplement of paper PMC8728848

Biological target: Neu5Ac(a2-6)Gal(b1-4)GlcNAc(b1-2)Man(a1-6)[Gal(b1-4)GlcNAc(b1-2)Man(a1-3)]Man(b1-4)GlcNAc(b1-4)GlcNAc
Test: glycan array binding signal (z-score within array); higher = stronger binding
Conditions: glycan notation: IUPAC condensed, linker removed
The entries come from a sample that favours the strongest signals as a whole.
So basically: glycan array binding signal (z-score) at 0.03 or higher? That is t. Lower than 0.03? That is f.

[[record]]
binder = "Gal 3 (Homo sapiens), P17931 (protein) MADNFSLHDALSGSGNPNPQGWPGAWGNQPAGAGGYPGASYPGAYPGQAPPGAYPGQAPPGAYHGAPGAYPGAPAPGVYPGPPSGPGAYPSSGQPSAPGAYPATGPYGAPAGPLIVPYNLPLPGGVVPRMLITILGTVKPNANILDFQRGNDVAFHFNPRFNENNRRVIVCNTKLDNNWGREERQSVFPFESGKPFKIQVLVEPDHFKVAVNDAHLLQYNHRVKKLNEISKLGISGDIDLTSASYTMI"
category_label = "f"


Assess whether reported glycan array binding signal (z-score) for Clec2 (Mus musculus), Q9JL99 (protein) MQDEDGYITLNIKPRKQALSSAEPASSWWRVMALVLLISSMGLVVGLVALGIMSVTQQKYLLAEKENLSATLQQLAKKFCQELIRQSEIKTKSTFEHKCSPCATKWRYHGDSCYGFFRRNLTWEESKQYCTEQNATLVKTASQSTLDYIAERITSVRWIGLSRQNSKKDWMWEDSSVLRKNGINLSGNTEENMNCAYLHNGKIHPASCKERHYLICERNAGMTRVDQLL sits at 0.03 or higher. f

Hi team, for XTP3-B-MRH2 (Homo sapiens), Q96DZ1 (protein) EFLSGSYCFRGGVGWWKYEFCYGKHVHQYHEDKDSGKTSVVVGTWNQEEHIEWAKKNTARAYHLQDDGTQTVRMVSHFYGNGDICDITDKPRQVTVKLKCKESDSPHAVTVYMLEPHSCQYILGVESPVICKILDTA , is the recorded glycan array binding signal (z-score) at or above 0.03? f

I'd appreciate it if you could say whether CALR truncated at D342 (Homo sapiens) (protein) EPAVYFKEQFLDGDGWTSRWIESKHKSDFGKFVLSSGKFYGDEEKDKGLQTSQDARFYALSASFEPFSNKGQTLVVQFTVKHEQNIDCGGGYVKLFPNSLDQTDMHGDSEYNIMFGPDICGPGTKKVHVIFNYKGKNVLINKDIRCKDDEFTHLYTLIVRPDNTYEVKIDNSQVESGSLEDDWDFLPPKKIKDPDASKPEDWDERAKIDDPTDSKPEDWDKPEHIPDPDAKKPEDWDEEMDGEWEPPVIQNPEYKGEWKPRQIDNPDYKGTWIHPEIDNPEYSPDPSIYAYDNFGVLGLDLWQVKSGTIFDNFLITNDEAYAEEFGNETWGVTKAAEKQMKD has glycan array binding signal (z-score) at least equal to 0.03. t

Is glycan array binding signal (z-score) for GSL-I (Griffonia simplicifolia) (protein) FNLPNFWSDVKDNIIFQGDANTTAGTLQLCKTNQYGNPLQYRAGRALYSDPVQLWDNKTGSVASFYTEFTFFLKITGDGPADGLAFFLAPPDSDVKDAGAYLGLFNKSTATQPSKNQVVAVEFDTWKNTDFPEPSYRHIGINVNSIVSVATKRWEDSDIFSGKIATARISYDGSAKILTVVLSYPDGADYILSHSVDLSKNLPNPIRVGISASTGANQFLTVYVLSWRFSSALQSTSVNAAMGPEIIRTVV at or above 0.03? t

Hi team, for Arath Fbox (Arabidopsis thaliana), NP_178341.1 (protein) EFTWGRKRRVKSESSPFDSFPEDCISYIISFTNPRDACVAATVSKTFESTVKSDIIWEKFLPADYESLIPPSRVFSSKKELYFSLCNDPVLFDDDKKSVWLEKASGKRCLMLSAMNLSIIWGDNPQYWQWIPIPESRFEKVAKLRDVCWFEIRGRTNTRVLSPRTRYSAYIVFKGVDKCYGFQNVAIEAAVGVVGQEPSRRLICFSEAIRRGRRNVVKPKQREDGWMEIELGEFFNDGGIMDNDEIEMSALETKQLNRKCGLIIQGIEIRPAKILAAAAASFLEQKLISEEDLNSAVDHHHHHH , is the recorded glycan array binding signal (z-score) at or above 0.03? t

Identify whether the reported glycan array binding signal (z-score) of the following binder is 0.03 or greater: rMpL (Macrolepiota procera) (protein) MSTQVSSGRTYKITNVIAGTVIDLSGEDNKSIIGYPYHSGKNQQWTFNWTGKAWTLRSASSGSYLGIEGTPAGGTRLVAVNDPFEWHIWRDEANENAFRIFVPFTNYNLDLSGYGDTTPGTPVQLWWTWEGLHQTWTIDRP f

Would you say AT5G01260(PC)(40) (Arabidopsis thaliana), Q9LFB0 (protein) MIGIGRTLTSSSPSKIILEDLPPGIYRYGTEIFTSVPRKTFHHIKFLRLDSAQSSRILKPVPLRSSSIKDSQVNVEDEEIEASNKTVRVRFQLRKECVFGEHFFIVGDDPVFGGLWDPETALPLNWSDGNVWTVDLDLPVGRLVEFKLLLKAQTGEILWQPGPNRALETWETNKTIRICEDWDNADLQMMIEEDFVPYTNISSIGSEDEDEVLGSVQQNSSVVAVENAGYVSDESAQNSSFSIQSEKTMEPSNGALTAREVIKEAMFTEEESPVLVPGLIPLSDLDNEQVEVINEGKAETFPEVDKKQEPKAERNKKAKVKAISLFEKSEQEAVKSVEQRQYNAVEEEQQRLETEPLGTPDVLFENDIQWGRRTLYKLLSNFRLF shows glycan array binding signal (z-score) at minimum 0.03? f

Identify whether the reported glycan array binding signal (z-score) of the following binder is 0.03 or greater: DC-ASGPR S+GEE (Homo sapiens) (protein) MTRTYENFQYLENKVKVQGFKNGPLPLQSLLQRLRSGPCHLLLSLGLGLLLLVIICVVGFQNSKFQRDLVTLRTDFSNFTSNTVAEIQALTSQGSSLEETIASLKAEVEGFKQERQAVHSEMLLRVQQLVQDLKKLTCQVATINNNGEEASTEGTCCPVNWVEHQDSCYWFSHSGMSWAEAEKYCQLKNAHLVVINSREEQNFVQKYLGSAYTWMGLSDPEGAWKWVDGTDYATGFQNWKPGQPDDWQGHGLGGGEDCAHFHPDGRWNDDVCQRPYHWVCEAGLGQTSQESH f

Answer whether glycan array binding signal (z-score) of CAA (Caragana arborescens) (protein) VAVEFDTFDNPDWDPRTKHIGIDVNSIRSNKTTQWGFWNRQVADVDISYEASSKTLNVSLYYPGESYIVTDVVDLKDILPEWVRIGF is greater than or equal to 0.03. t
